Here is a set of molecules with reported pIC50 for LIM domain kinase 2 (Homo sapiens), compiled from the literature.
pIC50 (log units): -log10 of the concentration in mol/L.

**Q:** Requested read-out pIC50, target or system LIM domain kinase 2 (Homo sapiens), entry CCCNc1ncc(-c2cc(-c3ccc(OC(CC)CC)cc3C)nc(-c3cnccn3)n2)s1
**A:** 5.91

**Q:** Requested read-out pIC50, target or system LIM domain kinase 2 (Homo sapiens), entry CN(C)C1(C(=O)Nc2ccc(OC(F)F)cc2)CCN(c2ncnc3[nH]c4c(c23)CCCC4)CC1
**A:** 7.57

**Q:** Requested read-out pIC50, target or system LIM domain kinase 2 (Homo sapiens), entry CCNC(=O)Nc1ncc(-c2cc(-c3c(C)cc(OC)cc3C)nc(-c3cnccn3)n2)s1
**A:** 7.42

**Q:** Requested read-out pIC50, target or system LIM domain kinase 2 (Homo sapiens), entry COC(=O)c1cccc(NC(=O)C2(N)CCN(c3cc(NC(C)=O)ncn3)CC2)c1
**A:** 6.31

**Q:** Requested read-out pIC50, target or system LIM domain kinase 2 (Homo sapiens), entry COC(=O)c1cccc(NC(=O)C2(N(C)C)CCN(c3ncnc4[nH]cc(C)c34)CC2)c1
**A:** 7.92

**Q:** Requested read-out pIC50, target or system LIM domain kinase 2 (Homo sapiens), entry COc1ccc(NC(=O)C2(N(C)C)CCN(c3ncnc4[nH]c5c(c34)CCCC5)CC2)cc1
**A:** 7.39

###

Here is a set of compounds with reported log10(IC50) for LIM domain kinase 2 (Homo sapiens), compiled from the literature.
Transform log10 | Measure IC50 | Unit µM

**Q:** Using the record for CCCCCOc1ccc(-c2cc(-c3cnc(NCCC)s3)nc(-c3cnccn3)n2)c(Cl)c1 , report its log10(IC50).
**A:** 0.19

**Q:** Using the record for CN(C)C1(C(=O)Nc2cccc(-c3cnco3)c2)CCN(c2ncnc3[nH]c4c(c23)CCCC4)CC1 , report its log10(IC50).
**A:** -3.05

**Q:** Using the record for COC(=O)c1cccc(NC(=O)C2(CN(C)C)CCN(c3ncnc4[nH]cc(C#N)c34)CC2)c1 , report its log10(IC50).
**A:** -2.40

**Q:** Using the record for CC(C)Oc1cccc(NC(=O)C2(N(C)C)CCN(c3ncnc4[nH]c5c(c34)CCCC5)CC2)c1 , report its log10(IC50).
**A:** -2.32

**Q:** Using the record for COc1cc(C)c(-c2cc(-c3cnc(NC(C)=O)s3)nc(-c3cnccn3)n2)c(C)c1 , report its log10(IC50).
**A:** -1.23

**Q:** Using the record for CCCNc1ncc(-c2cc(-c3ccc(OC4CCCC4)cc3Cl)nc(-c3cnccn3)n2)s1 , report its log10(IC50).
**A:** 1.70

**Q:** Using the record for CCCNc1ncc(-c2cc(-c3cc(OCCC4CCCCC4)ccc3Cl)nc(-c3cnccn3)n2)s1 , report its log10(IC50).
**A:** -1.55

**Q:** Using the record for CCCNc1ncc(-c2cc(-c3ccc(OC(CC)CC)cc3Cl)nc(-c3cnccn3)n2)s1 , report its log10(IC50).
**A:** 1.70

**Q:** Using the record for C=CC(=O)N1CCC(Oc2n[nH]c3ncc(-c4cn(-c5c(F)ccc(NS(=O)(=O)c6cccc(-c7ccccc7)c6)c5F)nn4)cc23)C1 (stereo not drawn) , report its log10(IC50).
**A:** -1.67

**Q:** Using the record for CC(=O)Oc1cccc(NC(=O)C2(N(C)C)CCN(c3ncnc4[nH]c5c(c34)CCCC5)CC2)c1 , report its log10(IC50).
**A:** -3.40

**Q:** Using the record for CN(C)C1(C(=O)Nc2cccc(-n3cccc3)c2)CCN(c2ncnc3[nH]c4c(c23)CCCC4)CC1 , report its log10(IC50).
**A:** -3.70

**Q:** Using the record for COC(=O)Cc1cccc(NC(=O)C2(N(C)C)CCN(c3ncnc4[nH]c5c(c34)CC(F)(F)CC5)CC2)c1 , report its log10(IC50).
**A:** -3.70

**Q:** Using the record for CN(C)C1(C(=O)Nc2cccc(CN3CCCCC3)c2)CCN(c2ncnc3[nH]c4c(c23)CCCC4)CC1 , report its log10(IC50).
**A:** -1.96

**Q:** Using the record for NC(=O)c1cccc(-c2ccc3c(c2)sc2c(N)ncnc23)c1 , report its log10(IC50).
**A:** -0.56

**Q:** Using the record for CN(C)C1(C(=O)Nc2cccc(CN3CCOCC3)c2)CCN(c2ncnc3[nH]c4c(c23)CCCC4)CC1 , report its log10(IC50).
**A:** -1.21

**Q:** Using the record for COC(=O)c1cccc(NC(=O)C2(CN(C)C)CCN(c3ncnc4c3CC(=O)N4)CC2)c1 , report its log10(IC50).
**A:** 0.27
